Sourced from patent US4906621A

Test system: NMDA-type excitatory amino acid receptors
Assay text: inhibition of NMDA-evoked 3H-acetylcholine release from rat striatal tissue slices
Type: cell-based
Experimental conditions: stimulation with 50 uM NMDA, read-out: IC50 in the in vitro NMDA-evoked 3H-ACh release test
Endpoint label: IC50

IC50 in this record for O=C(O)[C@@H]1C[C@H](CP(=O)(O)O)CCN1 (relative stereo) : ~8 µM
